# System: LOX IMVI melanoma
# Assay comment: NCI-60 one-dose screen, 48 h
# Condition description: 10 µM unless noted
The panel holds about 83,000 compounds, 20% with a hit somewhere; the sample as a whole holds those more often. The source made the active and inactive calls. Rule for the calls: active = growth percent below 10; inactive = the rest.
Give your call using only these classes: y = active, n = inactive

IN: Record lookup: outcome of this test for COc1ccc(S(=O)(=O)Nc2cc(/C=C\c3cc(OC)c(OC)c(OC)c3)cc(OC)c2OC)cc1 ?
OUT: n

IN: Record lookup: outcome of this test for C=C(C)[C@@H]1C[C@H](O)Cc2cc(F)ccc2N1 ?
OUT: n

IN: Record lookup: outcome of this test for Cc1ccc(S(=O)(=O)NCCNc2nccc(-c3c(-c4ccc(O)cc4)nc4sccn34)n2)cc1 ?
OUT: n

IN: Record lookup: outcome of this test for CC(=O)Oc1csc(N(C(C)=O)c2cccc(C(F)(F)F)c2)n1 ?
OUT: n

IN: Record lookup: outcome of this test for COc1ccc(S(=O)(=O)NCCCNc2nccc(-c3c(-c4cccc([N+](=O)[O-])c4)nc4sccn34)n2)cc1 ?
OUT: n

Next:
IN: Record lookup: outcome of this test for O=C(CCl)N(C1CCCCC1)C1CCCCC1 ?
OUT: y

Measured values drawn from PubChem BioAssay (NCI) for this set.
